# measurement_target: WRN (Homo sapiens, UniProt Q14191)
# Construct: A His-tagged construct of WRN (AA S2-S1235) was produced and used for the ATPase assay; His; made in house; host or cells: Sf9 insect cells (baculovirus, pFastBac1)
# Sequence (Q14191 2-1235): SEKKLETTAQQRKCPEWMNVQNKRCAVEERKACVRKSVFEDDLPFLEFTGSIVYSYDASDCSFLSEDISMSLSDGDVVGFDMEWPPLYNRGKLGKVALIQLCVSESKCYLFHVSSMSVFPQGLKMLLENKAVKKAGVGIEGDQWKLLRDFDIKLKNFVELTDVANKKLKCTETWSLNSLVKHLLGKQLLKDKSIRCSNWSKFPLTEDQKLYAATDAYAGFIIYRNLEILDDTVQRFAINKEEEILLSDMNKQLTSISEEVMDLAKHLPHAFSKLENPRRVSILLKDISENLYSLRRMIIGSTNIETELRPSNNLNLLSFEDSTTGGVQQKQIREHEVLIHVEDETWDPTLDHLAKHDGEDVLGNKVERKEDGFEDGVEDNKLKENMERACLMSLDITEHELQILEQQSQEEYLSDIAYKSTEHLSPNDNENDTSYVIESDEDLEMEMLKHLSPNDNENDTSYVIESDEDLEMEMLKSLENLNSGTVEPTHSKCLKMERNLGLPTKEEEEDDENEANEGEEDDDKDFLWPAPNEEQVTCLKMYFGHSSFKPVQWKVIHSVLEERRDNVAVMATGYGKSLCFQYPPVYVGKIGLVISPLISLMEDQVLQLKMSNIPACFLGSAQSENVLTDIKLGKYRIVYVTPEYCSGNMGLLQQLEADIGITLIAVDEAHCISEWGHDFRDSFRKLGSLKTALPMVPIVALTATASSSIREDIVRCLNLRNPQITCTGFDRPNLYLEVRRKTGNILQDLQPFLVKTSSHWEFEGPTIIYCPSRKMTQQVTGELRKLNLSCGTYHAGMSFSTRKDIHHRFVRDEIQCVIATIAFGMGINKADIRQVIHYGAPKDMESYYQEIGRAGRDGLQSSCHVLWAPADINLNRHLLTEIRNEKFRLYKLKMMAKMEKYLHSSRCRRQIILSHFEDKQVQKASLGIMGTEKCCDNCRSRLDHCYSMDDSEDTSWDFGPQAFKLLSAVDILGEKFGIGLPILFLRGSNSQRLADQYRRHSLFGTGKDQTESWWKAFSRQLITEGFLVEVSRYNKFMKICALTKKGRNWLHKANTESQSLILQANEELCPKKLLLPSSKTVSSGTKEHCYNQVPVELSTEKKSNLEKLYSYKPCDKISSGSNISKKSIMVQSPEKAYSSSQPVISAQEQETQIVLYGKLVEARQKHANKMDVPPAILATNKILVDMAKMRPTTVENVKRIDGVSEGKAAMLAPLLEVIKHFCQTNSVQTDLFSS
# protocol_description: WRN ATPase activity assay (ADP-Glo)
# Assay type: biochemical
# study_conditions: 1-hr pre-incubation with enzyme; 100 μM ATP, 25 nM forked dsDNA, 1 nM WRN; geometric mean of at least 2 replicates
pIC50: −log10 of the molar value.
Listing of entries alongside the reported pIC50.

Entry under review: C=CC(=O)Nc1cc(C#N)ccc1-c1c(CC)nc2n(CC(=O)Nc3ccc(C(F)(F)F)cc3)c3ccccc3n2c1=O . Reported pIC50?
> 7.00

How about this compound: C=CC(=O)Nc1ccccc1-c1c(CC)nc2n(CC(=O)Nc3ccccc3)c3ccccc3n2c1=O
> 7.00

How about this compound: C=CC(=O)Nc1ccc(C(=O)NCCOC)cc1-c1c(CC)nc2n(CC(=O)Nc3ccc(F)cc3)c3ccccc3n2c1=O
6.30 to 7.00

How about this compound: C=CC(=O)Nc1ccccc1-c1c(CC)c(C#N)c2n(CC(=O)Nc3ccc(C(F)(F)F)cc3)c3ccccc3n2c1=O
6.30 to 7.00

---

# measurement_target: WRN (Homo sapiens)
# Construct: A His-tagged construct of WRN (AA S2-S1235) was produced and used for the ATPase assay; His; made in house; host or cells: Sf9 insect cells (baculovirus, pFastBac1)
# protocol_description: WRN ATPase activity assay (ADP-Glo)
# Type: biochemical
# study_conditions: 1-hr pre-incubation with enzyme; 100 μM ATP, 25 nM forked dsDNA, 1 nM WRN; geometric mean of at least 2 replicates
Listing of entries alongside the reported IC50.

Examples with their reported IC50 follow.
C=CC(=O)Nc1ccccc1-c1c(CC)nc2n(CC(=O)Nc3ccc(F)cc3)c3cc(C)c(C)cc3n2c1=O; 1000 to 5000 nM
C=CC(=O)Nc1ccccc1-c1c(CC)nc2n(CC(=O)Nc3ccc(C(F)(F)F)cc3)c3ccccc3n2c1=O; < 100 nM

Entry under review: C=CC(=O)Nc1ccc(C(=O)OC)cc1-c1c(CC)nc2n(CC(=O)Nc3ccc(F)cc3)c3ccccc3n2c1=O . Reported IC50?
< 100 nM

How about this molecule: C=CC(=O)Nc1ccccc1-c1c(CC)nc2n(CC(=O)Nc3ccc(F)cc3Cl)c3ccccc3n2c1=O
< 100 nM

How about this molecule: C=CC(=O)Nc1ccccc1-c1c(CC)nc2n(CC(=O)Nc3cccc(C(F)(F)F)c3)c3ccccc3n2c1=O
100 to 500 nM

How about this molecule: C=CC(=O)Nc1nn(C)cc1-c1c(CC)nc2n(CC(=O)Nc3ccc(C(F)(F)F)cc3)c3ccccc3n2c1=O
1000 to 5000 nM

How about this molecule: C=CC(=O)Nc1ccccc1-c1c(CC)cc2n(CC(=O)Nc3ccc(C(F)(F)F)cc3)c3ccccc3n2c1=O
100 to 500 nM

How about this molecule: C=CS(=O)(=O)Nc1ccccc1-c1c(CC)nc2n(CC(=O)Nc3ccc(C(F)(F)F)cc3)c3ccccc3n2c1=O
< 100 nM

How about this molecule: C=CC(=O)Nc1ccccc1-c1c(CC)nc2n(CC(=O)NC3CCCCC3)c3ccccc3n2c1=O
1000 to 5000 nM
